// provenance: patent US11186577B2

System: wild-type (WT) MDCK cells
Assay: MDR1-MDCK effective efflux assay (Transwell, 10 μM, 1 hour), wild-type MDCK cells
Type: in vitro ADME
Conditions: MDCK

# compound, WT ER
rows = [
    ("CC(C)OC(=O)N1Cc2cc(Cl)ccc2-n2c(nnc2C2CC3(C2)CN(C(=O)C2(F)CC2)C3)C1", "+"),
    ("O=C(N1Cc2cc(Cl)ccc2-n2c(nnc2C2CC3(C2)CN(c2ccc(F)cn2)C3)C1)C1(F)CC1", "+++"),
    ("O=C(C1CC1)N1CC2(CC(c3nnc4n3-c3ccc(Cl)cc3CN(C(=O)C3(F)CC3)C4)C2)C1", "+"),
    ("CC(=O)N1Cc2cc(Cl)ccc2-n2c(nnc2C2CC3(C2)CN(c2ccccn2)C3)C1", "+"),
    ("COc1ccc2c(c1)CN(C)Cc1nnc(C3CC4(C3)CN(c3cnccn3)C4)n1-2", "+++"),
    ("O=C(C1COC1)N1Cc2cc(Cl)ccc2-n2c(nnc2C2CC3(C2)CN(c2ccc(F)cn2)C3)C1", "+"),
    ("CC1c2nnc(C3CC4(C3)CN(c3ccc(F)cn3)C4)n2-c2ccc(Cl)cc2CN1C (stereo not drawn)", "+++"),
    ("CN1Cc2cc(Cl)ccc2-n2c(nnc2C2CC3(C2)CN(c2cccc(F)n2)C3)C1", "++++"),
    ("CCC(=O)N1Cc2cc(Cl)ccc2-n2c(nnc2C2CC3(C2)CN(c2ccccn2)C3)C1", "+++"),
    ("CC1c2nnc(C3CC4(C3)CN(c3ccc(F)cn3)C4)n2-c2ccc(Cl)cc2CN1C(=O)OC(CF)CF (stereo not drawn)", "+++"),
    ("CCOC(=O)N1Cc2cc(Cl)ccc2-n2c(C3CC4(C3)CN(c3ncccn3)C4)nnc2C1C (stereo not drawn)", "+++"),
    ("COC(=O)N1Cc2cc(Cl)ccc2-n2c(C3CC4(C3)CN(c3ncccn3)C4)nnc2C1C (stereo not drawn)", "+++"),
    ("CC1c2nnc(C3CC4(C3)CN(c3ccc(F)cn3)C4)n2-c2ccc(Cl)cc2CN1C(=O)C(F)F (stereo not drawn)", "++++"),
    ("CN1Cc2cc(Cl)ccc2-n2c(nnc2C2CC3(C2)CN(C(=O)C2(F)CC2)C3)C1", "++"),
    ("CC1c2nnc(C3CC4(C3)CN(c3ccc(F)cn3)C4)n2-c2ccc(Cl)cc2CN1C(=O)OC1CCC1 (stereo not drawn)", "+++"),
]

###

The entries below are paired with their reported IC50.
Biological target: human Arginine Vasopressin Receptor V2 (AVPR2) (Homo sapiens (Human), UniProt P30518)
Sequence (P30518 whole entry): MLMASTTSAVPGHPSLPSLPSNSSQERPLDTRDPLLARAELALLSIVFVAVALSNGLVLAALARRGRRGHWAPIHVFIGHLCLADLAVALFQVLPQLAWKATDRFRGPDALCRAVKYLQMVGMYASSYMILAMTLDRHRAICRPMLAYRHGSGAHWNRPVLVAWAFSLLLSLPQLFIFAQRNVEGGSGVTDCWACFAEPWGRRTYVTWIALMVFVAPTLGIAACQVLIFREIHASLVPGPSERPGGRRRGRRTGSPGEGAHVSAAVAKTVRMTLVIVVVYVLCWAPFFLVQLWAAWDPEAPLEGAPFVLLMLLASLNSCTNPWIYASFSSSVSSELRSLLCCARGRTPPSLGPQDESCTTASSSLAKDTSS
Assay: Vasopressin V2 receptor antagonist assay (cAMP TR-FRET, 1321N1 cells)

# compound, IC50
records = [
    ("CC(C)N1Cc2cc(Cl)ccc2-n2c(nnc2C2CC3(C2)CN(c2ccccn2)C3)C1", "0.5 to 1 µM"),
    ("COC(=O)N1Cc2cc(Cl)ccc2-n2c(C3CC4(C3)CN(c3cnccn3)C4)nnc2C1C (single isomer, unassigned) [Cpd 165A]", "> 1 µM"),
    ("COC(=O)N1Cc2cc(Cl)ccc2-n2c(C3CC4(C3)CN(c3cnccn3)C4)nnc2C1C (stereo not drawn) [compound 165]", "> 1 µM"),
    ("CCC(=O)N1Cc2cc(Cl)ccc2-n2c(nnc2C2CC3(C2)CN(c2ccc(F)cn2)C3)C1", "0.1 to 0.5 µM"),
    ("COC(=O)N1Cc2cc(Cl)ccc2-n2c(nnc2C2CC3(C2)CN(c2ccc(F)cn2)C3)C1", "0.1 to 0.5 µM"),
    ("CC1c2nnc(C3CC4(C3)CN(c3ccc(F)cn3)C4)n2-c2ccc(Cl)cc2CN1C(=O)OC1CC1 (single isomer, unassigned) [Cpd 191A]", "> 1 µM"),
    ("CC1c2nnc(C3CC4(C3)CN(c3ccccn3)C4)n2-c2ccc(Cl)cc2CN1C(=O)C1(F)CC1 (single isomer, unassigned) [Cpd 181A]", "0.1 to 0.5 µM"),
    ("CN1Cc2cc(Cl)ccc2-n2c(nnc2C2CC3(C2)CN(c2ccc(F)cn2)C3)C1", "> 1 µM"),
    ("COC(=O)N1Cc2cc(Cl)ccc2-n2c(C3CC4(C3)CN(c3ccc(F)cn3)C4)nnc2C1C (single isomer, unassigned) [142A]", "> 1 µM"),
    ("CC(C)OC(=O)N1Cc2cc(Cl)ccc2-n2c(C3CC4(C3)CN(c3ccc(F)cn3)C4)nnc2C1C (single isomer, unassigned) [Cpd 163A]", "> 1 µM"),
    ("CC(C)OC(=O)N1Cc2cc(Cl)ccc2-n2c(nnc2C2CC3(C2)CN(C(=O)C2CC2)C3)C1", "> 1 µM"),
    ("Cc1nc(N2CC3(CC(c4nnc5n4-c4ccc(Cl)cc4CN(C4CC4)C5)C3)C2)ccc1F", "< 0.1 µM"),
    ("CCC(=O)N1Cc2cc(Cl)ccc2-n2c(nnc2C2CC3(C2)CN(c2ccccn2)C3)C1", "> 1 µM"),
    ("COCCN1Cc2cc(Cl)ccc2-n2c(nnc2C2CC3(C2)CN(c2ccccn2)C3)C1", "> 1 µM"),
    ("CC(C)N1Cc2cc(Cl)ccc2-n2c(nnc2C2CC3(C2)CN(c2ccc(F)cn2)C3)C1", "0.1 to 0.5 µM"),
    ("O=C(OC(CF)CF)N1Cc2cc(Cl)ccc2-n2c(nnc2C2CC3(C2)CN(c2ccc(F)cn2)C3)C1", "0.5 to 1 µM"),
    ("CN1Cc2cc(Cl)ccc2-n2c(nnc2C2CC3(C2)CN(c2cccc(F)n2)C3)C1", "> 1 µM"),
    ("CC(C)OC(=O)N1Cc2cc(Cl)ccc2-n2c(C3CC4(C3)CN(c3ncc(F)cn3)C4)nnc2C1C (single isomer, unassigned) [Cpd 201A]", "> 1 µM"),
]

###

Below, each entry is listed alongside its reported pIC50.
Target: human Arginine Vasopressin Receptor V2 (AVPR2) (Homo sapiens (Human), UniProt P30518)
Experiment: Vasopressin V2 receptor antagonist assay (cAMP TR-FRET, 1321N1 cells)
pIC50: −log10 of the molar value.
parameterMeasured: pIC50

# compound, testTarget, observed
data = [
    ("CC1c2nnc(C3CC4(C3)CN(c3ccc(F)cn3)C4)n2-c2ccc(Cl)cc2CN1C(=O)OC(CF)CF (single isomer, unassigned) [Cpd 203A]", "human Arginine Vasopressin Receptor V2 (AVPR2) (Homo sapiens (Human), UniProt P30518)", "6.00 to 6.30"),
    ("FCCN1Cc2cc(Cl)ccc2-n2c(nnc2C2CC3(C2)CN(c2ccccn2)C3)C1", "human Arginine Vasopressin Receptor V2 (AVPR2) (Homo sapiens (Human), UniProt P30518)", "6.00 to 6.30"),
    ("CCOC(=O)N1Cc2cc(Cl)ccc2-n2c(nnc2C2CC3(C2)CN(c2ccc(F)cn2)C3)C1", "human Arginine Vasopressin Receptor V2 (AVPR2) (Homo sapiens (Human), UniProt P30518)", "6.30 to 7.00"),
    ("CC1c2nnc(C3CC4(C3)CN(c3ccc(F)cn3)C4)n2-c2ccc(Cl)cc2CN1C(=O)C1(F)CC1 (centres unmarked) [compound 174]", "human Arginine Vasopressin Receptor V2 (AVPR2) (Homo sapiens (Human), UniProt P30518)", "< 6.00"),
    ("CC1c2nnc(C3CC4(C3)CN(c3ncccn3)C4)n2-c2ccc(Cl)cc2CN1C(=O)OC(CF)CF (single isomer, unassigned) [Cpd 202A]", "human Arginine Vasopressin Receptor V2 (AVPR2) (Homo sapiens (Human), UniProt P30518)", "< 6.00"),
    ("COC(=O)N1Cc2cc(Cl)ccc2-n2c(C3CC4(C3)CN(c3ncc(F)cn3)C4)nnc2C1C (centres unmarked) [compound 170]", "human Arginine Vasopressin Receptor V2 (AVPR2) (Homo sapiens (Human), UniProt P30518)", "< 6.00"),
    ("CC(C)C(=O)N1Cc2cc(Cl)ccc2-n2c(nnc2C2CC3(C2)CN(c2ccc(F)cn2)C3)C1", "human Arginine Vasopressin Receptor V2 (AVPR2) (Homo sapiens (Human), UniProt P30518)", "6.00 to 6.30"),
    ("CC1c2nnc(C3CC4(C3)CN(c3ccc(F)cn3)C4)n2-c2ccc(Cl)cc2CN1C(=O)C1(F)CC1 (single isomer, unassigned) [Cpd 174A]", "human Arginine Vasopressin Receptor V2 (AVPR2) (Homo sapiens (Human), UniProt P30518)", "< 6.00"),
]
